Reported Kd values for a set of compounds
TARGET UNDER TEST: BRD4-BD2 (Homo sapiens, UniProt O60885)
ASSAY TEXT: bromoKdELECT assay for binding affinity to BRD4-BD2
CONDITION SUMMARY: Table 7

Consider the reported Kd for these compounds:
Kd in this record for Cc1sc2c(c1C)C(c1ccc(Cl)cc1)=N[C@@H](CC(=O)NCCOCCOCCOC1CCN(c3ncc(C(=O)N[C@H]4C(C)(C)[C@H](Oc5ccc(C#N)c(Cl)c5)C4(C)C)cn3)C1)c1nnc(C)n1-2 (stereo partly shown) : < 50 nM

Kd measured on `CCNC(=O)C[C@@H]1N=C(c2ccc(OCCOC3CCN(c4ncc(C(=O)N[C@H]5C(C)(C)[C@H](Oc6ccc(C#N)c(Cl)c6)C5(C)C)cn4)CC3)cc2F)c2c(sc(C)c2C)-n2c(C)nnc21` = 50 to 500 nM

Reported Kd for `CCNC(=O)C[C@@H]1N=C(c2ccc(N3CCN(CC4CCN(c5ncc(C(=O)N[C@H]6C(C)(C)[C@H](Oc7ccc(C#N)c(Cl)c7)C6(C)C)cn5)CC4)CC3)cc2)c2c(sc(C)c2C)-n2c(C)nnc21` was 50 to 500 nM

Turning to the following compound.
In plain terms, `CCNC(=O)C[C@@H]1N=C(c2ccc(N(C)CC3CN(c4ncc(C(=O)N[C@H]5C(C)(C)[C@H](Oc6ccc(C#N)c(Cl)c6)C5(C)C)cn4)C3)cc2)c2c(sc(C)c2C)-n2c(C)nnc21` has a documented Kd of 50 to 500 nM

###

# GI50 listing for each entry below
Test system: T-Rex 293 cell line SC3 cells lacking increased expression of androgen receptor protein
ASSAY TEXT: Cellular growth inhibition, T-Rex 293 SC3 cells without doxycycline, CellTiter-Glo
Format: cell-based
CONDITION SUMMARY: 72 h, T-Rex 293 SC3 cells not exposed to doxycycline, CellTiter-Glo 2.0

These solved cases illustrate the format of a correct answer.
Sure, the documented GI50 for Cc1sc2c(c1C)C(c1ccc(O[C@@H]3CCC4(CCN(c5ncc(C(=O)N[C@H]6C(C)(C)[C@H](Oc7ccc(C#N)c(Cl)c7)C6(C)C)cn5)C4)C3)cc1)=N[C@@H](Cc1ncco1)c1nnc(C)n1-2 (stereo partly shown) is < 500 nM

Field GI50 (entry `Cc1sc2c(c1C)C(c1ccc(CN3CCN(C(=O)c4ncc(C(=O)N[C@H]5C(C)(C)[C@H](Oc6ccc(C#N)c(Cl)c6)C5(C)C)cn4)CC3)cc1)=N[C@@H](Cc1ncco1)c1nnc(C)n1-2` ) reads 500 to 1500 nM

According to the records, this compound `Cc1sc2c(c1C)C(c1ccc(CC(C)(C)N3CC4(CCCN(c5ncc(C(=O)N[C@H]6C(C)(C)[C@H](Oc7ccc(C#N)c(Cl)c7)C6(C)C)cn5)C4)C3)cc1)=N[C@@H](Cc1ncco1)c1nnc(C)n1-2` displays GI50 of 1500 to 3000 nM

More entries:
The recorded GI50 for entry `Cc1sc2c(c1C)C(c1ccc(CNC(=O)[C@H]3CCCN(c4ncc(C(=O)N[C@H]5C(C)(C)[C@H](Oc6ccc(C#N)c(Cl)c6)C5(C)C)cn4)C3)cc1)=N[C@@H](Cc1ncco1)c1nnc(C)n1-2` equals < 500 nM

###

TARGET UNDER TEST: BRD4-BD2 (Homo sapiens, UniProt O60885)
ASSAY TEXT: bromoKdELECT assay for binding affinity to BRD4-BD2
CONDITION SUMMARY: Table 7
pKd: −log10 of the molar value.
MEASUREMENT LABEL: pKd

Before answering, review these 2 worked examples.
What the record says about `Cc1sc2c(c1C)C(c1ccc(CCCOC3CCN(c4ncc(C(=O)N[C@H]5C(C)(C)[C@H](Oc6ccc(C#N)c(Cl)c6)C5(C)C)cn4)CC3)cc1)=N[C@@H](CC(=O)NC(C)C)c1nnc(C)n1-2` : pKd is 5.60 to 6.30

The measured pKd associated with `CCNC(=O)C[C@@H]1N=C(c2ccc(OCCOC3CCN(c4ncc(C(=O)N[C@H]5C(C)(C)[C@H](Oc6ccc(C#N)c(Cl)c6)C5(C)C)cn4)CC3)c(F)c2)c2c(sc(C)c2C)-n2c(C)nnc21` reads 6.30 to 7.30

Query compound follows.
Sure, the documented pKd for `Cc1sc2c(c1C)C(c1ccc(CCCOC3CCN(c4ncc(C(=O)N[C@H]5C(C)(C)[C@H](Oc6ccc(C#N)c(Cl)c6)C5(C)C)cn4)CC3)cc1)=N[C@@H](CC(=O)NC1CC1)c1nnc(C)n1-2` is 6.30 to 7.30
